Molecular target: aryl hydrocarbon receptor (AHR) (Homo sapiens)
Sequence (P35869 11-848): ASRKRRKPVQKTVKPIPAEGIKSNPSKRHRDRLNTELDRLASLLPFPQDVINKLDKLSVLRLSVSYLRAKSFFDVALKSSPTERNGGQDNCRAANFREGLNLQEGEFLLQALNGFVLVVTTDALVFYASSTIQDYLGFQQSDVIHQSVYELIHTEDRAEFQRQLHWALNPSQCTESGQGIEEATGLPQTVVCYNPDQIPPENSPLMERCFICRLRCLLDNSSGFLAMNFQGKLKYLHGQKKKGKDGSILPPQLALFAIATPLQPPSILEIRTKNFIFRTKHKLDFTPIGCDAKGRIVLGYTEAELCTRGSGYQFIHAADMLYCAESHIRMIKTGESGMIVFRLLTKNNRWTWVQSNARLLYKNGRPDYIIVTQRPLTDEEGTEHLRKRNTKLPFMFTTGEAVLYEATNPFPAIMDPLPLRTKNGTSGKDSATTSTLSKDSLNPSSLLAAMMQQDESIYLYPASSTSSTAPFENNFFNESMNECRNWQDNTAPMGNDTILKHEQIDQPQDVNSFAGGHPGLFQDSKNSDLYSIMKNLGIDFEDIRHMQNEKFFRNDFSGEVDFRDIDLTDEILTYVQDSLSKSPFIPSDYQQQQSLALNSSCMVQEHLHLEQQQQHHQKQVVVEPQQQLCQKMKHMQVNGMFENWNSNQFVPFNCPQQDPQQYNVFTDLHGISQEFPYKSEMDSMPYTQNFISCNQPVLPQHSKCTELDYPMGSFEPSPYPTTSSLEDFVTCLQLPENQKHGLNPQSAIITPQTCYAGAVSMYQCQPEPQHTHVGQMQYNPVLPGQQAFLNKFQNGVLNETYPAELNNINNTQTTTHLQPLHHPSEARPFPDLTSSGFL
Test: DRE-Luciferase reporter high-throughput screen (AHR antagonist, VAF347-activated)
Please go through the items and note down their IC50.

Worked cases, answers included:
Molecule | Recorded value
FC(F)(F)c1ccc(N/N=C/c2ccc(Cl)cc2)nc1 [45B] | 1000 to 2000 nM
CN(C)c1cccc(-c2nnc(-c3ccc(C(F)(F)F)cc3)[nH]2)c1 | 200 to 500 nM

Please turn your attention to the following entry.
Exam item: Read off the recorded IC50 for CC(C)c1cc(-c2nnc3sc(-c4ccccn4)nn23)[nH]n1
Marked response: 200 to 500 nM

* * *

Test system: mobilized peripheral blood CD34+ cells
Assay: CD34+ expansion assay
Assay type: cell-based
Settings: Homo sapiens; read-out: CD34 Frequency EC50
Please go through the items and note down their EC50.

Compound | EC50
N#Cc1cn(-c2ccc(Cl)cc2)nc1C(=O)c1cccs1 | < 500 nM
Cc1ccc(Nc2ccc(NC(=O)c3ccc(-c4ccccc4)cc3)cc2)nn1 | 1000 to 5000 nM
CCc1cccc2c(-c3cn4cc(S(N)(=O)=O)ccc4n3)c[nH]c12 | < 500 nM
Cc1ccc(-n2nnc(-c3nc4ccccc4s3)c2N)cc1 | < 500 nM
Cc1ccc2nc3sc(C(=O)Nc4cccc(C(F)(F)F)c4)cc3c(=O)n2c1 | < 500 nM
N#Cc1ccc(C(=O)Nc2cc(C(F)(F)F)ccc2Cl)c(F)c1 | 500 to 1000 nM
COc1ccc(-c2n[nH]c3c2C(=O)CC(c2ccccc2)C3)cc1 (stereo not shown) | < 500 nM
Cc1ccc(NC(=O)c2sc3nc(N)c(C#N)cc3c2N)cc1Cl | < 500 nM

Please go through the list and note EC50 for each compound.
1. Cc1ccc(C(=O)Nc2ccc(-c3nccs3)cc2)cc1
2. Cn1cnnc1Sc1ccc(NC(=O)c2cc(Br)ccc2F)cc1

Marked response:
1000 to 5000 nM
1000 to 5000 nM

Please go through the list and note EC50 for each compound.
1. CC(=O)N1CCN(c2nc3cc(C(F)(F)F)ccc3s2)CC1
2. COc1cc([N+](=O)[O-])ccc1NC(=O)Nc1nc2c(s1)CCCC2

Marked response:
1: 1000 to 5000 nM; 2: 1000 to 5000 nM

Please go through the list and note EC50 for each compound.
1. COC(=O)c1sc(NC(=O)c2cc(C)n(C)n2)cc1C
2. CCN(C)C(=O)c1cnc(-c2noc3ccccc23)s1
3. CCCCOc1ccc(C(=O)Nc2cccc(C(=O)OCC(C)C)c2)cc1
4. Fc1ccc(/C=N\N2CCN(c3ccccn3)CC2)cc1
5. Cc1noc(C)c1COc1cccc(C(=O)/N=c2/sccn2C)c1
6. Cc1cnn(-c2nc(-c3ccc(F)cc3)cc(C(F)(F)F)n2)c1
7. Cc1ccc(N/N=C/c2ccc(-n3ccnc3)cc2)cc1Cl
8. CCc1cc(C(=O)Nc2ccc(SC)cc2)sc1C

Marked response:
1: ≥ 5000 nM; 2: 1000 to 5000 nM; 3: ≥ 5000 nM; 4: ≥ 5000 nM; 5: < 500 nM; 6: < 500 nM; 7: 1000 to 5000 nM; 8: 1000 to 5000 nM

Please go through the list and note EC50 for each compound.
1. Cc1c(Cl)c(=O)oc2cc(OCc3ccc(Cl)cc3)ccc12
2. Cc1ccccc1CS(=O)(=O)N1CCc2ccccc2C1

Marked response:
1. ≥ 5000 nM
2. 1000 to 5000 nM

The reported measurements were obtained from patent US20210220408A1.
